The reported numbers originate from PubChem BioAssay AID588473.

Quick list: activation per entry.
Test system: CRF-binding protein / CRF receptor 2 complex (human)
Assay: agonists of CRF-BP/CRF-R2 complex, primary screen, cell-based, HEK293, calcium dye fluorescence, uHTS (AID 588473);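 note: plate controls were neutral control wells without compound for no effect and CRF at EC100 for full effect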
Conditions: calcium dye fluorescence (FLIPR), at 13.2 µM, active compounds read high, percent of saturating CRF peptide response
About 1,600 (0.46%) of roughly 350,000 compounds were called active. The sample holds actives, similar compounds and a random draw of the others, so the mix is not that of the screen.

Compound	Measurement Units	activation
Cc1ccc(-n2[nH]c(C)c(/C=N/N3C(=O)c4cccc5cccc(c45)C3=O)c2=O)cc1	%	113
CC1CC1C(=O)OCC(=O)Nc1cccc(F)c1 (stereo not drawn)	%	1.09
c1ccc(C(=NNc2nc3ccccc3s2)c2ccccn2)cc1	%	5.4
O=C(N1CCOCC1)N1CCOCC1	%	-0.16
COc1ccc(C)cc1NC(=O)CSc1nc(SC)ns1	%	-0.91
N#C/C(=C\c1ccc(N2CCOCC2)o1)C(=O)N1CCOCC1	%	57.8
N#C/C(=C/c1ccc(N2CCOCC2)o1)C(=O)N1CCOCC1	%	67.4
CCN(C(=O)Cc1nc(N)n[nH]1)C1(C(=O)Nc2ccccc2)CCCCC1	%	1.43
N#C/C(=C\C1=C(N2CCOCC2)C(=C\c2ccccc2)/CC1)C(=O)Nc1ccccc1F	%	10.9
O=C(NNC(=S)NC(=O)c1cn(-c2ccccc2)nc1-c1ccccc1)c1ccncc1	%	27.4
COc1ccc(C(=O)NNC(=O)c2cc(C)[nH]n2)cc1	%	-0.62
N#C/C(=C\N1CCOCC1)S(=O)(=O)c1ccc(Cl)cc1	%	-0.74
Cc1noc(C)c1COc1ccc(C(=O)NCCOc2ccccc2)cc1	%	3.12
CN1C(=O)c2cccc3c(N)ccc(c23)C1=O	%	222
CC1(C)C2CCC13CS(=O)(=O)NC3C2 (stereo not drawn)	%	-2.27
COc1cc(SC#N)ccc1N=Cc1c(C)[nH]n(-c2ccc(C)cc2)c1=O	%	-2.61
O=C(COc1ccc(S(=O)(=O)N2CCCC2)cc1[N+](=O)[O-])N1CCCCC1	%	-0.47
Cn1cccc1C(=O)NNC(=O)COc1ccc(Br)cc1	%	0.35
C[C@H]1CN([C@@H](C)CO)C(=O)Cc2cc(NC(=O)Cc3ccccc3)ccc2O[C@H]1CN(C)S(=O)(=O)c1cccs1	%	0.76
Cc1ccc(-c2ccnc3[nH]n(-c4ccccc4)c(=O)c23)cc1	%	0.1
CSc1nsc(SCC(=O)Nc2cc(C(=O)O)ccc2C)n1	%	-1.07
Cc1ccc(O)c(NC(=S)NC(=O)COc2ccc(Br)cc2)c1	%	195
Cc1c(NC(=O)C(=O)N/N=C/c2cccs2)c(=O)n(-c2ccccc2)n1C	%	4.78

* * *

Quick list: activation per entry.
Tested on: CRF-binding protein / CRF receptor 2 complex (human)
Experiment: agonists of CRF-BP/CRF-R2 complex, primary screen, cell-based, HEK293, calcium dye fluorescence, uHTS (AID 588473);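 note: plate controls were neutral control wells without compound for no effect and CRF at EC100 for full effect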
Conditions: calcium dye fluorescence (FLIPR), at 13.2 µM, active compounds read high, percent of saturating CRF peptide response
The whole screen tested about 350,000 compounds, of which about 1,600 (0.46%) were called active. The sample holds actives, similar compounds and a random draw of the others, so the mix is not that of the screen.
Readout Label: activation (%)

Compound	Assay Target	Measurement Units	Recorded Measurement
Cc1cccc(C(C)C)c1NC(=O)COC(=O)C1CC(=O)N(Cc2ccccc2)C1 (stereo unspecified)	CRF-binding protein / CRF receptor 2 complex (human)	%	-1.23
O=C(NCCN1CCOCC1)C1CCN(S(=O)(=O)c2ccccc2)CC1	CRF-binding protein / CRF receptor 2 complex (human)	%	-0.1
COC(=O)C(C)Oc1ccc2c(-c3cccc([N+](=O)[O-])c3)cc(=O)oc2c1 (stereo unspecified)	CRF-binding protein / CRF receptor 2 complex (human)	%	-3.43
Cc1ccc(C(CC(=O)O)NC(=O)c2ccc(S(=O)(=O)N3CCCC3)cc2)cc1 (stereo unspecified)	CRF-binding protein / CRF receptor 2 complex (human)	%	0.98
Cc1ccccc1NC(=O)C(C)c1ccc(-c2ccccc2)c(F)c1 (stereo unspecified)	CRF-binding protein / CRF receptor 2 complex (human)	%	1.53
Cc1cccc(N2CCN(C(=O)c3cnn4c(C(F)F)cc(-c5ccccc5)nc34)CC2)c1C	CRF-binding protein / CRF receptor 2 complex (human)	%	-0.01
CCOC(=O)NC(=O)C(=CNc1cccc(OC)c1)C(=O)NC(=O)OCC	CRF-binding protein / CRF receptor 2 complex (human)	%	2.88
CC(C(=O)N1CCN(c2ccccc2F)CC1)c1ccc([N+](=O)[O-])cc1 (stereo unspecified)	CRF-binding protein / CRF receptor 2 complex (human)	%	-0.08
COc1ccc([C@H]2CC(=O)C=C(/C=C/c3ccc(Cl)cc3)C2)cc1	CRF-binding protein / CRF receptor 2 complex (human)	%	2.34
NS(=O)(=O)c1ccc(NC(=O)COC(=O)C2(c3ccc(F)cc3)CCCC2)cc1	CRF-binding protein / CRF receptor 2 complex (human)	%	-2.26
Cc1ccc(NC(=O)C(C)c2cccc(C(=O)c3ccccc3)c2)cc1 (stereo unspecified)	CRF-binding protein / CRF receptor 2 complex (human)	%	-1.3
Cc1ccc(C(=O)N/C(=C/c2ccco2)C(=O)NCCc2c[nH]c3ccccc23)cc1C	CRF-binding protein / CRF receptor 2 complex (human)	%	-0.5
CCCCN1C(N)=NC[C@@H]1CC1CCCCC1	CRF-binding protein / CRF receptor 2 complex (human)	%	-0.4
COc1cc(OC)c(-n2cc(-c3ccc(Cl)cc3)[nH]c2=O)cc1Cl	CRF-binding protein / CRF receptor 2 complex (human)	%	180
CCN(CC)CCCC(C)n1c2nc(=O)[nH]c(=O)c-2nc2cc(Cl)ccc21 (stereo unspecified)	CRF-binding protein / CRF receptor 2 complex (human)	%	192
Cc1cccc(N(C)C(=O)CN2C(=O)COc3ccc(S(=O)(=O)N4CCCCCC4)cc32)c1	CRF-binding protein / CRF receptor 2 complex (human)	%	21.6
Cc1ccc(-n2c(C)cc(C(=O)CSc3nnc4ccccn34)c2C)cc1	CRF-binding protein / CRF receptor 2 complex (human)	%	-0.98
COc1ccc(S(=O)(=O)/N=C2\C=C(NS(=O)(=O)c3ccccc3)C(=O)c3ccccc32)cc1	CRF-binding protein / CRF receptor 2 complex (human)	%	-1.4
CC(C(=O)O)N1C(=O)c2cccc3cccc1c23 (stereo unspecified)	CRF-binding protein / CRF receptor 2 complex (human)	%	-0.43
CCCCCCSc1ccc([C@@H]2[C@@H]3C(=O)N(CC)C(=O)[C@@H]3[C@]3(C(=O)OC)CCCCN23)cc1OC	CRF-binding protein / CRF receptor 2 complex (human)	%	5.06
Cc1nn(C(C)(C)C)c(OC(=O)CC(C)C)c1S(=O)(=O)c1ccccc1	CRF-binding protein / CRF receptor 2 complex (human)	%	4.7
Cc1cc(C(=O)COC(=O)C2CC2)c(C)n1-c1ccc(F)cc1	CRF-binding protein / CRF receptor 2 complex (human)	%	-3.55
COC(=O)c1ccc(C(=O)OC)c(NC(=S)N2CCN(c3cc(Cl)ccc3C)CC2)c1	CRF-binding protein / CRF receptor 2 complex (human)	%	2.16
CC(C)n1c(-c2ccncc2)n[nH]c1=S	CRF-binding protein / CRF receptor 2 complex (human)	%	-1.12
CCOC(=O)C1=C(N)N2C(=O)C(C)SC2=C(C(=O)OCC)C1c1cc(OC)c(OC)c(OC)c1 (stereo unspecified)	CRF-binding protein / CRF receptor 2 complex (human)	%	-0.18
Cc1cccc(C)c1N1CCN(S(=O)(=O)N2CCCCC2)CC1	CRF-binding protein / CRF receptor 2 complex (human)	%	152
Cc1ccc(C)c(NC(=O)COC(=O)Cn2c(C)csc2=O)c1	CRF-binding protein / CRF receptor 2 complex (human)	%	1.31
COc1ccc(CN2CCn3ncc(C(=O)Nc4ccc(Cl)cc4Cl)c3C2=O)cc1	CRF-binding protein / CRF receptor 2 complex (human)	%	1.96
N#Cc1cccc(CSc2ncnc(N)n2)c1	CRF-binding protein / CRF receptor 2 complex (human)	%	-1.54
Cc1ccc(-n2c(C)cc(C(=O)CN3C(=O)C(=O)N(C4CCCC4)C3=O)c2C)cc1	CRF-binding protein / CRF receptor 2 complex (human)	%	161
CC(=O)Nc1ccc(S(=O)(=O)N(C)c2ccc(OCC(=O)OCC(=O)N3CCCCC3)cc2)cc1	CRF-binding protein / CRF receptor 2 complex (human)	%	-1.11
CCCN1C2CCCC1CC(NC(=O)NC13CC4CC(CC(C4)C1)C3)C2 (stereo unspecified)	CRF-binding protein / CRF receptor 2 complex (human)	%	0.55
CC(OC(=O)CN1C(=O)C2CCCCC2C1=O)C(=O)Nc1ncc(Cl)cc1Cl (stereo unspecified)	CRF-binding protein / CRF receptor 2 complex (human)	%	0.41
Cc1ccc(S(=O)(=O)/N=C2\C=C(NS(=O)(=O)c3ccc(C)cc3)C(=O)c3ccccc32)cc1	CRF-binding protein / CRF receptor 2 complex (human)	%	-2.69
Cc1cc(C)c(S(=O)(=O)Nc2c(C)n(C)n(-c3ccccc3)c2=O)cc1[N+](=O)[O-]	CRF-binding protein / CRF receptor 2 complex (human)	%	-0.78
Cc1ccc(Nc2c(O)nc[nH]c2=O)cc1C	CRF-binding protein / CRF receptor 2 complex (human)	%	-0.7
COc1cc(OC)c(-n2c(C)cc(C=O)c2C)cc1Cl	CRF-binding protein / CRF receptor 2 complex (human)	%	0.85
CCc1ccc(NC(=O)CN2C(=O)COc3ccc(S(=O)(=O)N4CCCC4)cc32)cc1	CRF-binding protein / CRF receptor 2 complex (human)	%	-5.92
C[n+]1ccc(/C=C/c2c[nH]c3ccccc23)cc1	CRF-binding protein / CRF receptor 2 complex (human)	%	61.1
COc1cc(CCC(=O)OCC(=O)Nc2cccc(S(N)(=O)=O)c2)cc(OC)c1OC	CRF-binding protein / CRF receptor 2 complex (human)	%	1.86
Cc1nn(CC(=O)NC2CCCCC2)c(=O)c2cccn12	CRF-binding protein / CRF receptor 2 complex (human)	%	-0.23
